assay: Half life in rat at 3.5 umol/kg, iv; type: ADME, organism-based; conditions: in vivo
readout kind: half-life (min)

[[record]]
smiles = "CS(=O)(=O)N1CCC2(CC1)CC(C(=O)N1CCN(C3CCC3)CC1)C2"
unit_of_measurement = "min"
numeric_readout = 24


* * *

Target or system Histamine H3 receptor (Homo sapiens): recorded log10(Ki) listed per item.
readout kind: log10(Ki) (log10 of the value in µM)

[[record]]
compound = "O=C(C1CC12CCN(c1ccncc1)CC2)N1CCN(C2CCCCC2)CC1 (racemic)"
readout_kind = "log10(Ki)"
numeric_readout = -1.26

[[record]]
compound = "CC(C)N1CCN(C(=O)N2CC3(CCN(C4CCOCC4)CC3)C2)CC1"
readout_kind = "log10(Ki)"
numeric_readout = -1.01

[[record]]
compound = "O=C(C1CC12CCN(C1CCOCC1)CC2)N1CCCN(C2CCC2)CC1 (racemic)"
readout_kind = "log10(Ki)"
numeric_readout = -2.52

[[record]]
compound = "O=C(C1CC12CCN(C1CCOCC1)CC2)N1CCN(C2CCCCCC2)CC1 (racemic)"
readout_kind = "log10(Ki)"
numeric_readout = -1.19

[[record]]
compound = "CC(C)N1CCN(C(=O)[C@@H]2CC23CCN(C2CCOCC2)CC3)CC1"
readout_kind = "log10(Ki)"
numeric_readout = -1.80

[[record]]
compound = "O=C(C1CC12CCN(C1CCOCC1)CC2)N1CCN(C2CC2)CC1 (racemic)"
readout_kind = "log10(Ki)"
numeric_readout = -1.96

[[record]]
compound = "O=C(C1CC12CCN(c1ccccc1)CC2)N1CCN(C2CCCCC2)CC1 (racemic)"
readout_kind = "log10(Ki)"
numeric_readout = 0.22

[[record]]
compound = "CC(C)N1CCN(C(=O)[C@H]2CC23CCN(C2CCOCC2)CC3)CC1"
readout_kind = "log10(Ki)"
numeric_readout = -3.10

[[record]]
compound = "O=C(C1CC12CCNCC2)N1CCN(C2CCCCC2)CC1 (racemic)"
readout_kind = "log10(Ki)"
numeric_readout = -0.36

[[record]]
compound = "CC(C)N1CCN(C(=O)C2CC23CCN(C2CCOCC2)CC3)CC1 (racemic)"
readout_kind = "log10(Ki)"
numeric_readout = -2.52


* * *

test: Oral bioavailability in Sprague-Dawley rat 3 umol/kg; type: ADME, organism-based; conditions: in vivo
readout kind: bioavailability (%)

[[record]]
smiles = "CC(C)N1CCN(C(=O)[C@H]2CC23CCN(C2CCOCC2)CC3)CC1"
readout_kind = "bioavailability"
numeric_readout = 99


* * *

experiment: Half life in rat at 2.4 umol/kg, iv; type: ADME, organism-based; conditions: in vivo
readout kind: half-life

[[record]]
smiles = "O=C(C1CC2(CCN(C3CCOCC3)CC2)C1)N1CCN(C2CCC2)CC1"
result = "14.2 h"


* * *

assay: Half life in rat at 3 umol/kg, iv; assay type: ADME, organism-based; conditions: in vivo
readout kind: half-life (h)

[[record]]
smiles = "CC(C)N1CCN(C(=O)[C@H]2CC23CCN(C2CCOCC2)CC3)CC1"
numeric_readout = 25.3


* * *

pIC50: −log10 of the molar value.
Target or system Voltage-gated inwardly rectifying potassium channel KCNH2 (Homo sapiens): recorded pIC50 listed per item.
readout kind: pIC50

[[record]]
compound = "O=C(N1CCCN(C2CCC2)CC1)N1CCC2(CCCN(S(=O)(=O)c3ccccc3)C2)C1 (stereo not drawn)"
result = "< 4.48"

[[record]]
compound = "O=C(c1ccccc1)N1CCC2(CC1)CC(C(=O)N1CCN(C3CCC3)CC1)C2"
result = "< 4.48"

[[record]]
compound = "CC(C)N1CCN(C(=O)N2CCC3(CCCN(C4CCOCC4)C3)C2)CC1 (stereo not drawn)"
result = "< 4.48"


* * *

test: Octanol-water partition coefficient, log D of the compound by shake flask HPLC analysis; format: physicochemical
Each item that follows carries a reported logD.
readout kind: logD

[[record]]
molecule = "O=C(N1CCCN(C2CCC2)CC1)N1CCC2(CCCN(C3CCOCC3)C2)C1 (stereo not given)"
readout_kind = "logD"
numeric_readout = 0.23

[[record]]
molecule = "CC(C)N1CCN(C(=O)C2CC3(CCN(C4CCOCC4)CC3)C2)CC1"
readout_kind = "logD"
numeric_readout = -0.74

[[record]]
molecule = "O=C(C1CC12CCN(Cc1ccccc1)CC2)N1CCN(C2CCCCC2)CC1 (racemic)"
readout_kind = "logD"
numeric_readout = 2.81

[[record]]
molecule = "CC(C)N1CCN(C(=O)[C@@H]2CC23CCN(C2CCOCC2)CC3)CC1"
readout_kind = "logD"
numeric_readout = -0.35

[[record]]
molecule = "O=C(C1CC12CCN(C1CCOCC1)CC2)N1CCN(c2ccncc2)CC1 (racemic)"
readout_kind = "logD"
numeric_readout = -1.09


* * *

test: Intrinsic clearance in rat liver microsomes; format: ADME; conditions: read-out: CLH
readout kind: microsomal CLint (µL/min/mg)

[[record]]
compound = "CC(C)S(=O)(=O)N1CCC2(CCN(C(=O)N3CCCN(C4CCC4)CC3)C2)CC1"
readout_kind = "microsomal CLint"
unit_of_measurement = "µL/min/mg"
qualifier_symbol = "="
numeric_readout = 34

[[record]]
compound = "O=C(C1CC12CCN(C1CCCCC1)CC2)N1CCN(C2CCCCC2)CC1 (racemic)"
readout_kind = "microsomal CLint"
unit_of_measurement = "µL/min/mg"
qualifier_symbol = "="
numeric_readout = 31

[[record]]
compound = "CC(C)N1CCN(C(=O)C2CC3(CCN(C4CCOCC4)CC3)C2)CC1"
readout_kind = "microsomal CLint"
unit_of_measurement = "µL/min/mg"
qualifier_symbol = "<"
numeric_readout = 4

[[record]]
compound = "O=C(C1CC12CCN(C1CCOCC1)CC2)N1CCN(C2CCCC2)CC1 (racemic)"
readout_kind = "microsomal CLint"
unit_of_measurement = "µL/min/mg"
qualifier_symbol = "="
numeric_readout = 43

[[record]]
compound = "CC(C)N1CCN(C(=O)[C@H]2CC23CCN(C2CCOCC2)CC3)CC1"
readout_kind = "microsomal CLint"
unit_of_measurement = "µL/min/mg"
qualifier_symbol = "="
numeric_readout = 7


* * *

assay: Half life in rat at 2.1 umol/kg, iv; assay type: ADME, organism-based; conditions: in vivo
readout kind: half-life (h)

[[record]]
smiles = "CC(C)N1CCN(C(=O)C2CC3(CCN(C4CCOCC4)CC3)C2)CC1"
readout_kind = "half-life"
unit_of_measurement = "h"
numeric_readout = 11.7


* * *

test: Drug recovery in Sprague-Dawley rat urine at 3 umol/kg, iv after 24 hrs; format: ADME, organism-based; conditions: read-out: Drug recovery
readout kind: dose excreted at 24 h (%)

[[record]]
smiles = "CC(C)N1CCN(C(=O)[C@H]2CC23CCN(C2CCOCC2)CC3)CC1"
unit_of_measurement = "%"
numeric_readout = 14


* * *

assay: Apparent permeability from apical to basolateral side in MDCK cells; type: ADME, cell-based, Canis lupus familiaris; conditions: dog
# note: exactly 9 ×10⁻⁶ cm/s is not below, so it is NOT MET; use MET for Papp A→B strictly under it

[[record]]
compound = "O=C(C1CC12CCN(C1CCOCC1)CC2)N1CCN(C2CCC2)CC1 (racemic)"
category_label = "MET"

[[record]]
compound = "O=C(C1CC12CCN(C1CCCCC1)CC2)N1CCN(C2CCCCC2)CC1 (racemic)"
category_label = "MET"

[[record]]
compound = "O=C(C1CC12CCN(C1CCOCC1)CC2)N1CCN(C2CC2)CC1 (racemic)"
category_label = "MET"

[[record]]
compound = "CS(=O)(=O)N1CCC2(CC1)CC(C(=O)N1CCN(C3CCC3)CC1)C2"
category_label = "NOT MET"

[[record]]
compound = "O=C(C1CC2(CCN(C3CCOCC3)CC2)C1)N1CCN(C2CCC2)CC1"
category_label = "MET"

[[record]]
compound = "CC(C)N1CCN(C(=O)C2CC3(CCN(C4CCOCC4)CC3)C2)CC1"
category_label = "MET"

[[record]]
compound = "CC(C)N1CCN(C(=O)[C@H]2CC23CCN(C2CCOCC2)CC3)CC1"
category_label = "NOT MET"

[[record]]
compound = "CC(C)N1CCN(C(=O)C2CC23CCN(C2CCOCC2)CC3)CC1 (racemic)"
category_label = "MET"

[[record]]
compound = "CC(C)S(=O)(=O)N1CCC2(CCN(C(=O)N3CCCN(C4CCC4)CC3)C2)CC1"
category_label = "MET"

[[record]]
compound = "O=C(C1CC12CCN(C1CCOCC1)CC2)N1CCN(C2CCCC2)CC1 (racemic)"
category_label = "MET"


* * *

Each item that follows carries a reported logD.
assay: Octanol-water partition coefficient, log D of the compound by shake flask HPLC analysis; type: physicochemical
readout kind: logD

[[record]]
compound = "O=C(C1CC12CCN(C1CCOCC1)CC2)N1CCCN(C2CCC2)CC1 (racemic)"
numeric_readout = 0.18

[[record]]
compound = "CC(C)S(=O)(=O)N1CCC2(CCN(C(=O)N3CCCN(C4CCC4)CC3)C2)CC1"
numeric_readout = 0.8

[[record]]
compound = "O=C(C1CC2(CCN(C3CCOCC3)CC2)C1)N1CCN2CCCCC2C1 (stereo unspecified)"
numeric_readout = -0.46

[[record]]
compound = "O=C(c1ccccc1)N1CCC2(CC1)CCN(C(=O)N1CCCN(C3CCC3)CC1)C2"
numeric_readout = 1.22

[[record]]
compound = "O=C(C1CC12CCN(c1ccccc1)CC2)N1CCN(C2CCCCC2)CC1 (racemic)"
numeric_readout = 3.63

[[record]]
compound = "CC(C)N1CCN(C(=O)N2CCC3(CCN(C4CCOCC4)CC3)C2)CC1"
numeric_readout = -0.87

[[record]]
compound = "CC(C)N1CCCN(C(=O)C2CC3(CCN(C(=O)c4ccccc4)CC3)C2)CC1"
numeric_readout = 1.63

[[record]]
compound = "O=C(C1CC12CCN(C1CCOCC1)CC2)N1CCN(C2CCCCC2)CC1 (racemic)"
numeric_readout = 0.74

[[record]]
compound = "CS(=O)(=O)N1CCC2(CC1)CC(C(=O)N1CCN(C3CCC3)CC1)C2"
numeric_readout = 0.97

[[record]]
compound = "O=C(C1CC2(CCN(c3ccccc3)CC2)C1)N1CCN(C2CCC2)CC1"
numeric_readout = 3.25

[[record]]
compound = "O=C(C1CC12CCN(c1ccncc1)CC2)N1CCN(C2CCCCC2)CC1 (racemic)"
numeric_readout = 1.09

[[record]]
compound = "O=C(c1ccccc1)N1CCC2(CC1)CCN(C(=O)N1CCN(C3CCC3)CC1)C2"
numeric_readout = 1.8

[[record]]
compound = "CC(C)N1CCC2(CC1)CC2C(=O)N1CCN(C2CCCCC2)CC1 (racemic)"
numeric_readout = 0.74

[[record]]
compound = "CC(C)N1CCCN(C(=O)C2CC3(CCN(C4CCOCC4)CC3)C2)CC1"
numeric_readout = -1.78

[[record]]
compound = "O=C(c1ccccc1)N1CCCC2(CCN(C(=O)N3CCCN(C4CCC4)CC3)C2)C1 (stereo unspecified)"
numeric_readout = 1.01

[[record]]
compound = "O=C(C1CC2(CCN(C3CCOCC3)CC2)C1)N1CCN(C2CCCCC2)CC1"
numeric_readout = 0.75

